# TARGET_OR_TEST_SYSTEM: T1, GST-ZO-2 PDZ domain 2 (Homo sapiens (Human)), Q9UDY2
# T1 chain: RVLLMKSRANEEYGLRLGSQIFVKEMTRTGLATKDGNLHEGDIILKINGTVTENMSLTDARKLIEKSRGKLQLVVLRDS
# PROTOCOL_TEXT: G' assay; note: key of the grades not given here
PROPERTY_LABEL: Classification (A450 class)

BINDER: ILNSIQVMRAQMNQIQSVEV (modifications not checked) [ephrin B2]
REPORTED: 1
//
BINDER: PSSRASSRASSRPRPDDLEI (modifications not checked) [CX43 (connexin 43)]
REPORTED: 1
//
BINDER: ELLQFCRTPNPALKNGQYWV (modifications not checked) [CSPG4 (chondroitin sulfae proteoglycan 4, melanoma-associated)]
REPORTED: 1
//
BINDER: TEGNESSEATSPVNAIYSLA (modifications not checked) [neurofascin (chicken)]
REPORTED: 1
//
BINDER: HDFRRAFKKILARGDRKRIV (modifications not checked) [alpha-2A Adrenergic receptor]
REPORTED: 2
